Ref: the supplement of paper PMC10567573

B1: RAB40A (parent)
chain: NWLGRPSKVLSLQDLCCRTIVSCT

Variants of: B1
TEST PROTOCOL: protein stability index of a GFP-peptide fusion (GPS, HEK-293T) (PSI 1-6); higher = more stable;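 note: lentivirally expressed fusions sorted by FACS into six bins by GFP to DsRed ratio, PSI derived from sequencing read proportions per bin multiplied by bin number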
EXPERIMENTAL SETUP: c terminus: a fixed tail appended
PROPERTY NAME: protein stability index

Illustrative cases are given below, each with its answer.
NWLNRPSKVLSLQDLCCRTIVSCT [G4N]
2.27
NWLGRPSKVLSLQDLCCRTIVSRT [C23R]
2.92
NWLGRPSKVLSLQDLCPRTIVSCT [C17P]
1.74

Q. Supply protein stability index value. Item: NWLGRPSKVLMLQDLCCRTIVSCT [S11M]
A. 1.97

Q. Supply protein stability index value. Item: NWLGRPSKVLSLQDLCCRTTVSCT [I20T]
A. 1.73

Q. Supply protein stability index value. Item: NWLGRPSLVLSLQDLCCRTIVSCT [K8L]
A. 2

Q. Supply protein stability index value. Item: NWLGRPSKVLSLQDLCCRKIVSCT [T19K]
A. 2.69

Q. Supply protein stability index value. Item: NWLGRPSKVLSKQDLCCRTIVSCT [L12K]
A. 2.15

Q. Supply protein stability index value. Item: NWLGTPSKVLSLQDLCCRTIVSCT [R5T]
A. 2.42

Q. Supply protein stability index value. Item: NWLGRDSKVLSLQDLCCRTIVSCT [P6D]
A. 2.48

Q. Supply protein stability index value. Item: NWLGRPSKVLSLQYLCCRTIVSCT [D14Y]
A. 2.04

Q. Supply protein stability index value. Item: NWFGRPSKVLSLQDLCCRTIVSCT [L3F]
A. 2.28
